- experimentalTarget: UniProt P22830
- Sequence (P22830 whole entry): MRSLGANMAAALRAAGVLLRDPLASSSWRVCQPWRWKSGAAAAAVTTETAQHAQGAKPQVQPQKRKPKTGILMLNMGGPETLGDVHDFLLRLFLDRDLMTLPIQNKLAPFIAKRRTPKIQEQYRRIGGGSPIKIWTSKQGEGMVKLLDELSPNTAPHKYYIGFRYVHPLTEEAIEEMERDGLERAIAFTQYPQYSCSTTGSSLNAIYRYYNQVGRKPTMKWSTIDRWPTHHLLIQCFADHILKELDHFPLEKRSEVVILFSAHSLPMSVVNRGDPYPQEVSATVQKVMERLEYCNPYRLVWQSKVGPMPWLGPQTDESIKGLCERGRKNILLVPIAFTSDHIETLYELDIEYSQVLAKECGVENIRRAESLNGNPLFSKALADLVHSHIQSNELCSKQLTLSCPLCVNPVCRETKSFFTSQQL
Calls of active or inactive are those of the source.
experimentalEndpoint: Kd

smi: CN1CCN(c2ccc3nc(-c4c(N)c5c(F)cccc5[nH]c4=O)[nH]c3c2)CC1
Kd: > 30 µM (inactive)

smi: Cc1cc([C@@H](C)Nc2ccccc2C(=O)O)c2nc(N3CCOCC3)cc(=O)n2c1
Kd: > 30 µM (inactive)

smi: COc1ccc(-c2ccc3c(N4CCOC[C@@H]4C)nc(N4CCOC[C@@H]4C)nc3n2)cc1CO
Kd: 6.9 µM (active)

IN: What value of Kd has been recorded for this entry: CCCS(=O)(=O)Nc1ccc(F)c(C(=O)c2c[nH]c3ncc(-c4ccc(Cl)cc4)cc23)c1F
OUT: 1.42 µM (active)

IN: Field request: Kd | item: Cc1ccc(-n2nc(C(C)(C)C)cc2NC(=O)NCc2cc(F)ccc2Oc2ccc3c(cnn3CCO)c2)cc1
OUT: > 30 µM (inactive)

IN: Entry under review: COc1cc(N2CCC(N3CCN(C)CC3)CC2)ccc1Nc1ncnc(Nc2ccccc2S(=O)(=O)C(C)C)n1 . Reported Kd?
OUT: > 30 µM (inactive)

IN: Which measured Kd value corresponds to Cc1cc(Nc2cc(N3CCN(C)CC3)nc(/C=C/c3ccccc3)n2)n[nH]1 ?
OUT: > 30 µM (inactive)

IN: Recorded Kd for Cc1ccc(S(=O)(=O)Nc2nc3ccccc3nc2Nc2ccc3nsnc3c2)cc1 , please?
OUT: > 30 µM (inactive)

----------
Activity calls are given as the source filed them.
Target or system UniProt P31689; recorded quantity Kd.
Sequence (P31689 whole entry): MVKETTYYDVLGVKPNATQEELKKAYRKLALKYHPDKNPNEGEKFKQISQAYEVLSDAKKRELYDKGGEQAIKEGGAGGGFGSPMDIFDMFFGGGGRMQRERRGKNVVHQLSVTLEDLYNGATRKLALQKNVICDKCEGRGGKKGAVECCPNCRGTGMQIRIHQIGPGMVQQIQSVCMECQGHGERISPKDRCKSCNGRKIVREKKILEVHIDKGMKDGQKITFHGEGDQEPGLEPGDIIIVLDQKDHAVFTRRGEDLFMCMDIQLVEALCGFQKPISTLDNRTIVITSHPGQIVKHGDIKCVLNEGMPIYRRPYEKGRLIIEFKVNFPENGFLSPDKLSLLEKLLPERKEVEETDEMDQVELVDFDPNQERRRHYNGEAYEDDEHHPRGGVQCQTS

A selection of reference data follows.
compound: O=c1sn(-c2cccc3ccccc23)c(=O)n1Cc1ccccc1 [TIDEGLUSIB]
Kd: > 30 µM (inactive)

compound: Cc1cc([C@@H](C)Nc2ccccc2C(=O)O)c2nc(N3CCOCC3)cc(=O)n2c1 [AZD-6482]
Kd: > 30 µM (inactive)

compound: CC[C@H](Nc1ncnc2[nH]cnc12)c1nc2cccc(F)c2c(=O)n1-c1ccccc1 [IDELALISIB]
Kd: > 30 µM (inactive)

Shift focus to the following entry.
IN: Query for UniProt P31689: what Kd does the record show for O=C(O)[C@]1(Cc2cccc(Nc3nccs3)n2)CC[C@@H](Oc2cccc(Cl)c2F)CC1 [MK-5108] ?
OUT: > 30 µM (inactive)

----------
- experimentalTarget: Pyridoxal kinase (Homo sapiens); further: in the data inactive means no Kd found up to 30 µM
- Sequence (O00764 whole entry): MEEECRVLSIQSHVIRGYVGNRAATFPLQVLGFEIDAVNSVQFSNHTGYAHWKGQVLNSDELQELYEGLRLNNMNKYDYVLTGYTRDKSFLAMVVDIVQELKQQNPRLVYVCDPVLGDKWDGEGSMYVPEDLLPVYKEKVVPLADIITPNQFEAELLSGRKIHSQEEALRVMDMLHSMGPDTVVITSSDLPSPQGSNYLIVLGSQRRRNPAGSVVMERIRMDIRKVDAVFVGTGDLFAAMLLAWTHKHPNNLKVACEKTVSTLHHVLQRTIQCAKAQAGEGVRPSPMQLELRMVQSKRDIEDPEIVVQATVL
Activity calls are given as the source filed them.
Thanks in advance; please answer with one of these: active, inactive

Some solved cases for reference:
compound: CC(=O)Nc1cccc(-n2c(=O)n(C3CC3)c(=O)c3c(Nc4ccc(I)cc4F)n(C)c(=O)c(C)c32)c1 [TRAMETINIB]
className: inactive
--
compound: Cc1cc(-c2cc(O)ccc2Cl)cc2nnc(Nc3ccc(OCCN4CCCC4)cc3)nc12
className: inactive
--
compound: Cc1ccc(S(=O)(=O)Nc2nc3ccccc3nc2Nc2ccc3nsnc3c2)cc1
className: inactive
--
compound: COc1cc2nccc(Oc3ccc(NC(=O)NC4CC4)c(Cl)c3)c2cc1C(N)=O [LENVATINIB]
className: inactive
--
compound: Cn1ncc(Cl)c1-c1cc(C(=O)N[C@H](CN)Cc2cccc(F)c2)sc1Cl [AFURESERTIB]
className: inactive
--
compound: Cc1c(F)cc(C(=O)NC2CC2)cc1-c1ccc(C(=O)NCC(C)(C)C)cn1 [LOSMAPIMOD]
className: inactive

Would you kindly look at the next entry?
IN: Field: outcome | Entry: N[C@@H]1CCCN(c2c(/C=C3\SC(=O)NC3=O)cccc2-c2ccccc2)C1
OUT: inactive

----------
compounds and their reported Kd
- experimentalTarget: Tyrosine-protein kinase HCK (Homo sapiens, UniProt P08631); further: in the data inactive means no Kd found up to 30 µM
- Sequence (P08631 whole entry): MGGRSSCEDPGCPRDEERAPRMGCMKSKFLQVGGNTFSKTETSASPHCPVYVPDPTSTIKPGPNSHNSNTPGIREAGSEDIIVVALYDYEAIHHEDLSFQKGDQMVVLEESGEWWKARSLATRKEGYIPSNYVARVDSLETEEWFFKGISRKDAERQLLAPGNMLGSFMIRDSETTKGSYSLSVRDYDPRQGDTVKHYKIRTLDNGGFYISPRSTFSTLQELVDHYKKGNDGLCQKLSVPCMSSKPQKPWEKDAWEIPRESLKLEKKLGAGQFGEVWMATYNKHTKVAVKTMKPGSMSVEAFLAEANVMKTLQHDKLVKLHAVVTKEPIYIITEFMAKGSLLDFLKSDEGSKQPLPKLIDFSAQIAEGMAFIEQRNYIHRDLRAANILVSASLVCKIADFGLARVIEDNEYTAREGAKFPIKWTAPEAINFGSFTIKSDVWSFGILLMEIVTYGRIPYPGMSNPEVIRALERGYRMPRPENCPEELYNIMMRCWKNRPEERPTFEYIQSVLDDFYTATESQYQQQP
Calls of active or inactive are those of the source.

smi: COc1ccc(-c2ccc3c(N4CCOC[C@@H]4C)nc(N4CCOC[C@@H]4C)nc3n2)cc1CO
experimentalEndpoint: Kd
obsValue: > 30 µM (inactive)

smi: CCS(=O)(=O)N1CC(CC#N)(n2cc(-c3ncnc4[nH]ccc34)cn2)C1
experimentalEndpoint: Kd
obsValue: > 30 µM (inactive)

smi: Cc1c(F)cc(C(=O)NC2CC2)cc1-c1ccc(C(=O)NCC(C)(C)C)cn1
experimentalEndpoint: Kd
obsValue: > 30 µM (inactive)

IN: So what does the record say about Kd for C1=C/COCc2cc(ccc2OCCN2CCCC2)Nc2nccc(n2)-c2cccc(c2)COC/1 ?
OUT: > 30 µM (inactive)

IN: Look up Kd: C[C@@H]1CN(Cc2ccc(F)cc2)[C@@H](C)CN1C(=O)c1cc2c(C(=O)C(=O)N(C)C)cn(C)c2cc1Cl
OUT: > 30 µM (inactive)

IN: Which value of Kd has been reported for O=c1sn(-c2cccc3ccccc23)c(=O)n1Cc1ccccc1 in the records?
OUT: > 30 µM (inactive)

IN: Please give the measured Kd for this compound: O=C(Nc1cccc(Cl)c1)Nc1ncc(CCNc2ncnc3ccsc23)s1
OUT: > 30 µM (inactive)

IN: Given O=C(c1ccc(F)c(F)c1Nc1ccc(I)cc1F)N1CC(O)([C@@H]2CCCCN2)C1 , state its recorded Kd.
OUT: > 30 µM (inactive)

----------
- experimentalTarget: Wee1-like protein kinase (Homo sapiens); further: in the data inactive means no Kd found up to 30 µM
- Sequence (P30291 whole entry): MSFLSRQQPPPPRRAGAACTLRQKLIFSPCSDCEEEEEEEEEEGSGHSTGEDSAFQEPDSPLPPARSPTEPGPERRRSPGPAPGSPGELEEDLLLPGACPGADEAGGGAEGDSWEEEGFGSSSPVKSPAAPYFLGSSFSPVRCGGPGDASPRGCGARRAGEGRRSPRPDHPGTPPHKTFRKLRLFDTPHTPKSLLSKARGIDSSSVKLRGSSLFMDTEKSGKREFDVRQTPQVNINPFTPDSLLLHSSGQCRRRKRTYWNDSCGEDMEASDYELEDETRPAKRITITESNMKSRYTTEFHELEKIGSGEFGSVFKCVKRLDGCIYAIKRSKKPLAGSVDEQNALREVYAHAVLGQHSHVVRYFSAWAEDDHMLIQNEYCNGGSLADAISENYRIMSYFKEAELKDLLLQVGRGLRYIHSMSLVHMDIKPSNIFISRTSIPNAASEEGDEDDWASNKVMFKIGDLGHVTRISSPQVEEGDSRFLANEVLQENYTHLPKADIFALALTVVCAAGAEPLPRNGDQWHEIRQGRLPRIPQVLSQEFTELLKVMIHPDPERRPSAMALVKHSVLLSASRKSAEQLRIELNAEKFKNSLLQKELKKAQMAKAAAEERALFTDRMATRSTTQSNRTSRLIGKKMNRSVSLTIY
Active and inactive are the calls of the source.
Choose one outcome from this list and give only that: True = active, False = inactive

These recorded examples may help you get a feel for the data.
compound: C1=C/COCc2cc(ccc2OCCN2CCCC2)Nc2nccc(n2)-c2cccc(c2)COC/1
experimentalTarget: Wee1-like protein kinase (Homo sapiens); further: in the data inactive means no Kd found up to 30 µM
className: False
--
compound: Cc1ccc(S(=O)(=O)Nc2nc3ccccc3nc2Nc2ccc3nsnc3c2)cc1
experimentalTarget: Wee1-like protein kinase (Homo sapiens); further: in the data inactive means no Kd found up to 30 µM
className: False
--
compound: CC[C@@H]1C(=O)N(C)c2cnc(Nc3ccc(C(=O)N[C@H]4CC[C@H](N5CCN(CC6CC6)CC5)CC4)cc3OC)nc2N1C(C)C
experimentalTarget: Wee1-like protein kinase (Homo sapiens); further: in the data inactive means no Kd found up to 30 µM
className: False
--
compound: COCCNCc1ccc(-c2cc3nccc(Oc4ccc(NC(=S)NC(=O)Cc5ccc(F)cc5)cc4F)c3s2)nc1
experimentalTarget: Wee1-like protein kinase (Homo sapiens); further: in the data inactive means no Kd found up to 30 µM
className: False
--
compound: Cn1cc(-c2ccc(F)c(C(F)(F)F)c2)nc1C1CCN(c2ncnc3[nH]ncc23)CC1
experimentalTarget: Wee1-like protein kinase (Homo sapiens); further: in the data inactive means no Kd found up to 30 µM
className: False
--
compound: COC(=O)[C@@]1(O)C[C@H]2O[C@]1(C)n1c3ccccc3c3c4c(c5c6ccccc6n2c5c31)C(=O)NC4 [K-252A]
experimentalTarget: Wee1-like protein kinase (Homo sapiens); further: in the data inactive means no Kd found up to 30 µM
className: False
--
compound: Cc1ccc(NC(=O)c2ccc(CN3CC[C@H](N(C)C)C3)c(C(F)(F)F)c2)cc1Nc1nccc(-c2cncnc2)n1
experimentalTarget: Wee1-like protein kinase (Homo sapiens); further: in the data inactive means no Kd found up to 30 µM
className: False
--
compound: CNC(=O)c1cc(Oc2ccc(NC(=O)Nc3ccc(Cl)c(C(F)(F)F)c3)c(F)c2)ccn1
experimentalTarget: Wee1-like protein kinase (Homo sapiens); further: in the data inactive means no Kd found up to 30 µM
className: False

IN: Can you look up the reported call for Cn1ncc(Cl)c1-c1cc(C(=O)N[C@H](CN)Cc2cccc(F)c2)sc1Cl for me?
OUT: False

IN: Recorded test outcome, item COc1ccc(-c2ccc3c(N4CCOC[C@@H]4C)nc(N4CCOC[C@@H]4C)nc3n2)cc1CO
OUT: False

IN: Please share the test call associated with CNS(=O)(=O)Nc1nccc(Cc2c(C)c3ccc(Oc4ncccn4)cc3oc2=O)c1F .
OUT: False

IN: Short answer needed: outcome of this test for CNC(=O)CN1CCC(Oc2cc3c(Nc4cccc(Cl)c4F)ncnc3cc2OC)CC1 ?
OUT: False

IN: Tell me the recorded outcome of this test for Cc1ccc(-n2nc(C(C)(C)C)cc2NC(=O)NCc2cc(F)ccc2Oc2ccc3c(cnn3CCO)c2)cc1 .
OUT: False

----------
- experimentalTarget: Tyrosine-protein kinase ABL1 (Homo sapiens); further: in the data inactive means no Kd found up to 30 µM
- Sequence (P00519 whole entry): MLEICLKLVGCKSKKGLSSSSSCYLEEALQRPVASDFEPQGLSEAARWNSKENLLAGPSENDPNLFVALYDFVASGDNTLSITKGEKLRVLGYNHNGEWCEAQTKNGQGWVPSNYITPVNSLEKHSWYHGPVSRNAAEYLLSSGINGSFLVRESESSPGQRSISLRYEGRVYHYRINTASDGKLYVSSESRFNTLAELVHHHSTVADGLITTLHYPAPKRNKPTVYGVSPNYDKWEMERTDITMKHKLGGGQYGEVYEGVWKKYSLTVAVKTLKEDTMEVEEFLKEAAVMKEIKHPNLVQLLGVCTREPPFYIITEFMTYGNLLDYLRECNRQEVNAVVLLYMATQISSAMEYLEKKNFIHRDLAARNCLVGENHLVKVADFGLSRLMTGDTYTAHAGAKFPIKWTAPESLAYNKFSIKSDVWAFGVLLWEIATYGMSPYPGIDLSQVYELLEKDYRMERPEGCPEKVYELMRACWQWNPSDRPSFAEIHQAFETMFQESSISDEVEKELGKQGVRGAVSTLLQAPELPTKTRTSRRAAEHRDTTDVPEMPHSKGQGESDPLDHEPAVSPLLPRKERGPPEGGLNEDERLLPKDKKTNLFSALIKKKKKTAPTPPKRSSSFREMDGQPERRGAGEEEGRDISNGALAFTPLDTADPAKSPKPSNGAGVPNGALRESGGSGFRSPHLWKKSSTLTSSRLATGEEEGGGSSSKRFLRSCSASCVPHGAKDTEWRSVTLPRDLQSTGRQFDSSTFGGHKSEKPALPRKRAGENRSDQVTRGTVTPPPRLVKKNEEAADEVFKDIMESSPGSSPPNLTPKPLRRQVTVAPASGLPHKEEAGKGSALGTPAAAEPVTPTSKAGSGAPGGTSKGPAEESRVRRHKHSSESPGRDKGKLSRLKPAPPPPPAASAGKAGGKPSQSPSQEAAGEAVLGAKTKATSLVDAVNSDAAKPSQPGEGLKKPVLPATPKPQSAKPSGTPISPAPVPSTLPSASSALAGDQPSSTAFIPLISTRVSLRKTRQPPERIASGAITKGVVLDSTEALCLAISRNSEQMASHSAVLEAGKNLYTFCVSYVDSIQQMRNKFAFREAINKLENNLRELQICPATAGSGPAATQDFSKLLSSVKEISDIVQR
Calls of active or inactive are those of the source.
Your answer must be one of the following: active, inactive

Example entries and their recorded answers appear below.
compound: O=C(O)[C@]1(Cc2cccc(Nc3nccs3)n2)CC[C@@H](Oc2cccc(Cl)c2F)CC1
experimentalTarget: Tyrosine-protein kinase ABL1 (Homo sapiens); further: in the data inactive means no Kd found up to 30 µM
className: active

compound: CN1N=C(N)c2cn([C@@H]3O[C@H](COP(=O)(O)O)[C@@H](O)[C@H]3O)c3ncnc1c23 [TRICIRIBINE PHOSPHATE]
experimentalTarget: Tyrosine-protein kinase ABL1 (Homo sapiens); further: in the data inactive means no Kd found up to 30 µM
className: inactive

compound: O=c1sn(-c2cccc3ccccc23)c(=O)n1Cc1ccccc1
experimentalTarget: Tyrosine-protein kinase ABL1 (Homo sapiens); further: in the data inactive means no Kd found up to 30 µM
className: inactive

compound: COc1cc(N2CCC(N3CCN(C)CC3)CC2)ccc1Nc1ncnc(Nc2ccccc2S(=O)(=O)C(C)C)n1
experimentalTarget: Tyrosine-protein kinase ABL1 (Homo sapiens); further: in the data inactive means no Kd found up to 30 µM
className: active

compound: CC[C@@H]1C(=O)N(C)c2cnc(Nc3ccc(C(=O)N[C@H]4CC[C@H](N5CCN(CC6CC6)CC5)CC4)cc3OC)nc2N1C(C)C
experimentalTarget: Tyrosine-protein kinase ABL1 (Homo sapiens); further: in the data inactive means no Kd found up to 30 µM
className: inactive

compound: COc1ccc(-c2ccc3c(N4CCOC[C@@H]4C)nc(N4CCOC[C@@H]4C)nc3n2)cc1CO
experimentalTarget: Tyrosine-protein kinase ABL1 (Homo sapiens); further: in the data inactive means no Kd found up to 30 µM
className: inactive

compound: Nc1nc(N)c2nc(-c3cccc(O)c3)c(-c3cccc(O)c3)nc2n1
experimentalTarget: Tyrosine-protein kinase ABL1 (Homo sapiens); further: in the data inactive means no Kd found up to 30 µM
className: inactive

compound: Cc1cc(-c2cc(O)ccc2Cl)cc2nnc(Nc3ccc(OCCN4CCCC4)cc3)nc12
experimentalTarget: Tyrosine-protein kinase ABL1 (Homo sapiens); further: in the data inactive means no Kd found up to 30 µM
className: active

compound: O=C(c1ccc(F)c(F)c1Nc1ccc(I)cc1F)N1CC(O)([C@@H]2CCCCN2)C1
experimentalTarget: Tyrosine-protein kinase ABL1 (Homo sapiens); further: in the data inactive means no Kd found up to 30 µM
className: inactive

compound: CNC(=O)c1ccc(-c2cnc3ncc(Cc4ccc5ncccc5c4)n3n2)cc1F
experimentalTarget: Tyrosine-protein kinase ABL1 (Homo sapiens); further: in the data inactive means no Kd found up to 30 µM
className: inactive

From here, focus on the item given below.
IN: Hi, sorry to bother you, what did the test record for CNC(=O)CN1CCC(Oc2cc3c(Nc4cccc(Cl)c4F)ncnc3cc2OC)CC1 ?
OUT: inactive
